molecular target: Mouse ACVR2A (mouse, UniProt P27038 20-135, limits assumed); experiment: ELISA; further: test concentration or dose not given here
Sequence (P27038 20-135 limits assumed): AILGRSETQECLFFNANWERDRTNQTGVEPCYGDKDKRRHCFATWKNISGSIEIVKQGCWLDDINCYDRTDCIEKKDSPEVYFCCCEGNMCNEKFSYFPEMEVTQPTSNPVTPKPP
measuredProperty: optical density (OD)
Numbers only, in OD.

These solved cases illustrate the format of a correct answer.
376_H04 (antibody, V domains shown, VH/VL only) VH: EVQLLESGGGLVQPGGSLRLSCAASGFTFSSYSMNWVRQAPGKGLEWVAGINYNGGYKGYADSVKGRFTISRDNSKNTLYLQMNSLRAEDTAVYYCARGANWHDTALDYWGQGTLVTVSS VL: DIQMTQSPSSLSASVGDRVTITCRASQSILTYVNWYQQKPGKAPKLVIYAATSRASGVPSRFSGSGSGTDFTLTISSLQPEDFATYYCQQSYDLPLTFGGGTKVEIK	3.34
376_F06 (antibody, V domains shown, VH/VL only) VH: EVQLLESGGGLVQPGGSLRLSCAASGFTFSSYGMNWVRQAPGKGLEWVSGINYNGGYTGYADSVKGRFTISRDNSKNTLYLQMNSLRAEDTAVYYCARGANWHDTHLDYWGQGTLVTVSS VL: DIQMTQSPSSLSASVGDRVTITCRASQSILTYVNWYQQKPGKAPKLVIYAATSRASGVPSRFSGSGSGTDFTLTISSLQPEDFATYYCQQSYETPLTFGGGTKVEIK	3.65

Now consider the entry below.
Record 369_H08 (antibody, V domains shown, VH/VL only) VH: EVQLLESGGGLVQPGGSLRLSCAASGFTFSSYSMNWVRQAPGKGLEWVAGINYNSGYKSYADSVKGRFTISRDNSKNTLYLQMNSLRAEDTAVYYCARGATWHDTHLDYWGQGTLVTVSS VL: DIQMTQSPSSLSASVGDRVTITCRASQSILSYVNWYQQKPGKAPKLVIYAATSLASGVPSRFSGSGSGTDFTLTISSLQPEDFATYYCQQSYESPLTFGGGTKVEIK . Reported optical density: 3.23
